Exercise: for every item that follows, state its recorded protein stability index.
Assay: protein stability index of a GFP-peptide fusion (yeast GPS) (PSI 1-4); higher = more stable; sorted into four equal gates, so the index is relative within each strain
Settings: san1∆
Give bare numbers.

biopolymer_sequence: EEEATMTTSAVSPTVGK [YIL149C/MLP2]
protein stability index: 3.23
//
biopolymer_sequence: AAKTRSYNWGAKAKRRH [RPL37A]
protein stability index: 3
//
biopolymer_sequence: SMTAVPKPLKFLRPTYP [RPN1]
protein stability index: 1.85
//
biopolymer_sequence: KDIRSTLASLIRYNSVE [RPC82]
protein stability index: 2.67
//
biopolymer_sequence: GLSLAGLAPDARVLSNY [PRE5]
protein stability index: 1.27

// for each sequence below, give its protein stability index
1. ILARNDEEMAVLTRMDE [SNF2]
2. LKIYAQIEKKEIKKMII [YCG1]
3. NPKYDTSNASMNTTLGS [YAR002W/NUP60]

Response line:
[2.37, 2.89, 3.12]

###

Test: protein stability index of a GFP-peptide fusion (yeast GPS) (PSI 1-4); higher = more stable; sorted into four equal gates, so the index is relative within each strain
Details: pdr5∆
metric_name: protein stability index
Give bare numbers.

Example results:
biopolymer_sequence: EIDVENHDRINISNNLQ [RPN8]
value_reported: 3.26
--
biopolymer_sequence: IRKYGLNICRQCFREKA [RPS29A]
value_reported: 1.67
--
biopolymer_sequence: ETRNGKVKNQGADVTNT [YCS4]
value_reported: 3.45
--
biopolymer_sequence: DRSKPVALTSFLGYKAG [RPL3]
value_reported: 2.89
--
biopolymer_sequence: EKNDQNNDDDDNSVEQG [MCD1]
value_reported: 3.15
--
biopolymer_sequence: IAATAVASLVLARGHRV [RPL4A]
value_reported: 1.93
--
biopolymer_sequence: FIYGMSAKDHPKVKEIK [PRP8]
value_reported: 3.12
--
biopolymer_sequence: RELLKSQVEDFTRIFLP [SIR3]
value_reported: 3.1

// for each sequence below, give its protein stability index
1. LDFQTNKRLCDEIATIQ [RPS17A]
2. MKVEIDSFSGAKIYPGR [RPL24A]

Response line:
2.98
3.45

// for each sequence below, give its protein stability index
1. ATEVTPQEPKHIQEEEE [RPC19]
2. HEIITVGPHFKQANNFL [RPL7A]
3. MSSAAEKKPASKAPAEK [HTB2]
4. KREIQEALSEKPTREPT [RPC53]
5. SRFSPEKLAVSALEQAI [YGL100W/SEH1]

Response line:
1: 3.23; 2: 2.7; 3: 3.3; 4: 2.86; 5: 2.36

// for each sequence below, give its protein stability index
1. CYPQFAERDSQGGFYKQ [UBP6]
2. QLYFKKKVNYKVTSYDI [ISW2]
3. VAALKAVGAHSDLLKVL [RPL4A]
4. LRPGRIDRKVEFSLPDL [RPT1]
5. QESSSLRLLEVTDDDRL [POP8]
6. LVIGIFKRDLLREKEDK [YJL039C/NUP192]
7. SDDKTRQLSPHTLMSFA [PRE1]
8. LAPNMQLNGNETFSTSA [SNF2]

Response line:
[3.28, 2.56, 3.16, 3.35, 2.08, 2.28, 2.12, 3.17]

###

Assay: protein stability index of a GFP-peptide fusion (yeast GPS) (PSI 1-4); higher = more stable; sorted into four equal gates, so the index is relative within each strain
Details: doa10∆
metric_name: protein stability index
Numbers only.

biopolymer_sequence: EQILQWVTEVLGNDIPH [BRR2]
protein stability index: 3.07
//
biopolymer_sequence: NAAVAGVANTDTAGEES [SWI3]
protein stability index: 3.06
//
biopolymer_sequence: EAKKFEPTYRLVRYGLA [RPS24A]
protein stability index: 2.83

// for each sequence below, give its protein stability index
1. TNLGQPHSLATKTTGKC [RPS2]
2. DISLKADLERFFLSIYF [YJL039C/NUP192]
3. DTFRWVGKKSAPEKDIW [RPO31]
4. NNWFSLPGDMLAVCDEL [SIN4]
5. YNTNFNLLLRELNVEKL [SRP72]

Response line:
2.44
3.24
2.79
2.33
2.9

// for each sequence below, give its protein stability index
1. EPSYIFEYLATVMYQRR [PRE4]
2. NVNKKALGQDTEKMEEQ [MED11]
3. TSKSLVKRYRLAPTQLS [SIN4]
4. LVEEKTPGLTFNAIDLA [RPC82]
5. NGNTSSKTVVTLSEPVQ [FAS1]
6. LATYGLTIDDLGVASFH [FAS2]
7. AAKLKQTENDLKDIEAR [RPT1]

Response line:
2.1
2.88
2.63
3.23
2.91
2.97
2.48

// for each sequence below, give its protein stability index
1. KARSPGIAKPNAIQTEV [SIR4]
2. ILRSIPDKLLGVILMFA [COB]
3. KDRLYCGKCHSVYKVNA [RPS31]
4. MAPYLPGSRASSRFIKG [RPN2]

Response line:
1: 3.36; 2: 2.35; 3: 1.49; 4: 2.44

// for each sequence below, give its protein stability index
1. FKKAAPSPISHVAEIRS [RPB2]
2. EIVDTYQEDIFVSESPS [ISW2]
3. NYAMTRNILHNTVPQVT [SRB5]
4. VFERFKTKILEVAIRDV [IRR1]
5. NIKIDAKPALFERFINA [MCD1]
6. IESDSILNLLNILTTHL [ECM29]
7. VPSFLRPDITMYCRPAP [GRR1]

Response line:
1. 1.92
2. 2.83
3. 1.7
4. 1.77
5. 1.76
6. 2.39
7. 2.12

// for each sequence below, give its protein stability index
1. GAHKFLDTYLPEDLNSL [SIR2]
2. ALVFAALEHLKNLSLLA [SRP68]

Response line:
[1.85, 2.79]

###

Assay: protein stability index of a GFP-peptide fusion (yeast GPS) (PSI 1-4); higher = more stable; sorted into four equal gates, so the index is relative within each strain
Settings: doa10∆
Exercise: for every item that follows, state its recorded protein stability index.
Give bare numbers.

Example results:
biopolymer_sequence: RRRLLGPAAAKPMAFSN [MTR3]
protein stability index: 3.06
--
biopolymer_sequence: APSDFSENQRQIFCVFS [GRR1]
protein stability index: 2.93
--
biopolymer_sequence: KCLNYRNVNWIERLTKR [ITC1]
protein stability index: 2.91

// for each sequence below, give its protein stability index
1. QGAKTYLERTLDTFIKI [PRE5]
2. FNSVVNLSRYPKSGIDI [MTR3]
3. KAISVGANTSAAQTLLQ [PRE9]
4. EGDGAKAAISFGAKPEE [YJL041W/NSP1]
5. ATLQSNEPTQKDEEETE [DSN1]

Response line:
3.03
2.66
2.74
3.21
3.21

// for each sequence below, give its protein stability index
1. ALEDEERDEILTLTDSQ [BRR2]
2. SLEMVPKDTSAATMTSA [RGR1]

Response line:
1: 3.09; 2: 2.47

// for each sequence below, give its protein stability index
1. MSREGFQIPTNLDAAAA [RPC10]
2. SSLVQKGLETIDNGAES [RPC53]
3. FSKIAEYYRIQKQLPQK [ESC2]
4. SKVVDDMPSLRLIDLSG [GRR1]

Response line:
1.28
2.65
3.18
2.8
